Cited source for all entries: ChEMBL document CHEMBL1154067

Please respond with reported CC50 for every item in the list.
Assay: Cytotoxicity against hamster BHK21 cells assessed as reduction in cell viability after 48 to 96 hrs by MTT assay
Assay type: cell-based, Mesocricetus auratus, BHK-21
Settings: bhk-21

Please look up its CC50: `c1ccc(/N=N/N2CCN(c3ncccn3)CC2)cc1`
> 100 µM

Queued: `Clc1ccc(/N=N/N2CCCC2)cc1Cl`
50 µM

Queued: `Fc1ccc(F)c(/N=N/Nc2ccccc2)c1`
> 100 µM

Queued: `FC(F)(F)c1cccc(N/N=N/c2ccccc2)c1`
> 100 µM

Queued: `Cc1ccc(/N=N/N(CCCN(C)C)c2ccccc2)cc1`
> 100 µM

Queued: O=c1cccc2n1CC1CC2CN(/N=N/c2cccc([N+](=O)[O-])c2)C1 (configuration not stated)
> 100 µM

Queued: `CN(C)CCCNc1ccc(/N=N/c2ccccc2)cc1`
31 µM

Queued: `CN(C)CCCN(/N=N/c1cc(F)ccc1F)c1ccccc1`
25 µM

Queued: `c1ccc(/N=N/N2CCCC2)cc1`
≥ 100 µM

Queued: `Brc1cccc(/N=N/N2CCCC2)c1`
> 100 µM

Queued: `Cc1c(/N=N/c2cccc(C(F)(F)F)c2)ccc(NC[C@@H]2CCCN3CCCC[C@H]23)c1C`
≥ 100 µM

Queued: `Fc1ccc(F)c(/N=N/N2CCCC2)c1`
> 100 µM
